Target: CETP (Homo sapiens, UniProt P11597)
Construct: The donor lipoprotein obtained above was added to plasma of healthy subject
Sequence (P11597 18-493): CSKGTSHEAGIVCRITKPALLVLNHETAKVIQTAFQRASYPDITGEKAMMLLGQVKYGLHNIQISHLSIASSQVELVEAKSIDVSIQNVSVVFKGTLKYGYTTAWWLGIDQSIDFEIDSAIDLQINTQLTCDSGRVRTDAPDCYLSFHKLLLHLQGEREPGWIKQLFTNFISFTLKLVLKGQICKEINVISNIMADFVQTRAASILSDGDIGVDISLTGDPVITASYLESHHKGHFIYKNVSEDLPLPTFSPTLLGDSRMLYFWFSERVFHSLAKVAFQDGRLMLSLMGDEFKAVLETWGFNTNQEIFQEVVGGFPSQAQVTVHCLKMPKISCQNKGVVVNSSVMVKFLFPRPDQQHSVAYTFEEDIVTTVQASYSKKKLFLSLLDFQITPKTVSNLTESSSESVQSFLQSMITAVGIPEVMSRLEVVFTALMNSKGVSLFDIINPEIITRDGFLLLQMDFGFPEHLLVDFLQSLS
Assay: Inhibitory effect in vitro on CETP activity in total plasma
Settings: plasma of healthy subject with [3H]CE-HDL3, 37° C., 4 hr; average values
Counter-ions that a name gives are not always drawn.
measure name: pIC50
// pIC50: -log10(molar conc.)

Before answering, review these 2 worked examples.
1. CCN(C[C@H]1CC[C@H](C(=O)OC)CC1)c1cc2c(cc1CN(Cc1cc(C#N)cc(C(F)(F)F)c1)c1ccn(C)n1)CCCC2 [Example 43, hydrochloride]
6.26
2. CCN(C[C@H]1CC[C@H](C(=O)O)CC1)c1ccc(OC(F)(F)F)cc1CN(Cc1cc(C(F)(F)F)cc(C(F)(F)F)c1)c1noc(C)n1.Cl [Example 109, hydrochloride]
6.80

Alright, here's another compound for you.
-- ask Return reported pIC50; argument: CCN(CCCCC(=O)O)c1cc2c(cc1CN(Cc1cc(C#N)cc(C(F)(F)F)c1)c1nnn(C)n1)CCCC2 [Example 81, hydrochloride]
-- reply 6.48

The values you see were collected from patent US7807701B2.
